system: Plasmodium falciparum; assay: Antiprotozoal activity against chloroquine and pyrimethamine-resistant Plasmodium falciparum K1; format: functional, organism-based

{"compound": "CN(C)C12CC(O)C(C(c3ccccc3)C1)C(c1ccccc1)C2 (racemic)", "target-or-test-system": "Plasmodium falciparum", "IC50 [µM]": 13.1}
{"compound": "O=C(OC1CC2(N3CCCC3)CC(c3ccccc3)C1C(c1ccccc1)C2)c1ccncc1 (racemic; 11b)", "target-or-test-system": "Plasmodium falciparum", "IC50 [µM]": 4.49}
{"compound": "O=C(OC1CC2(N3CCCCC3)CC(c3ccccc3)C1C(c1ccccc1)C2)c1ccccc1 (stereo in doubt; 4c)", "target-or-test-system": "Plasmodium falciparum", "IC50 [µM]": 0.66}
{"compound": "O=C(OC1CC2(N3CCCC3)CC(c3ccccc3)C1C(c1ccccc1)C2)c1cccnc1 (racemic)", "target-or-test-system": "Plasmodium falciparum", "IC50 [µM]": 2.34}
